Test system: Mir155 reporter
Assay: Mir155 reporter Beta-Glo HTS assay (β-gal activity)
Format: cell-based, mouse
Details: Mus musculus, 48 h, read-out: EC50, inhibition of Mir155 reporter expression
MEASUREMENT TYPE: EC50 (nM)

compound="CCCSc1ccc2nc(NC(=O)OC)[nH]c2c1 [albendazole, reference compound]" quantitative_result=2500
